Biological target: FGFR1 (UniProt P11362)
Sequence (P11362 whole entry, looked up): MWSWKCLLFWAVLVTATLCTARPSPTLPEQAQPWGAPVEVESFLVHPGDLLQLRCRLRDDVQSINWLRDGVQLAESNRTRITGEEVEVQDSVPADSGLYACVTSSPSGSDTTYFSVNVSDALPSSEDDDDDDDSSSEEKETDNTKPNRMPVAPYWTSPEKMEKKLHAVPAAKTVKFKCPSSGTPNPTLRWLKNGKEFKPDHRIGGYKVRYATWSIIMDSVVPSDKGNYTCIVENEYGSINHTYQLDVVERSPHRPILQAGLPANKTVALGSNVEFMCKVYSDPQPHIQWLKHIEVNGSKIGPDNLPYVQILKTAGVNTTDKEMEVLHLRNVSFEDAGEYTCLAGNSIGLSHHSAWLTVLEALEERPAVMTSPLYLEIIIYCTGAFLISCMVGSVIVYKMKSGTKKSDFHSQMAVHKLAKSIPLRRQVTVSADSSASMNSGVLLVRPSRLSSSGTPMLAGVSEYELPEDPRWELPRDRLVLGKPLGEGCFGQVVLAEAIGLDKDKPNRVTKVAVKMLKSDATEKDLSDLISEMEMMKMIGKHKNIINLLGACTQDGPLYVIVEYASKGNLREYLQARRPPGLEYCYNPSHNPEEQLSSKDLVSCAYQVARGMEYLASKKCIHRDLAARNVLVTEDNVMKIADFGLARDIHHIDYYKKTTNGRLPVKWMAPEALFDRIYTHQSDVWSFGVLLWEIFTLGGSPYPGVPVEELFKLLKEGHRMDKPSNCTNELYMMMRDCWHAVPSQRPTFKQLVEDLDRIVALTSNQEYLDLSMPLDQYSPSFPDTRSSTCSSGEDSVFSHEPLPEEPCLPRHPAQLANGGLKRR
Test: phosphorylation enrichment, bacterial display (enrichment ratio); higher = better substrate or ligand; peptides without Tyr show the background;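 note: 11-residue human phosphosite peptides and single-mutation variants displayed on the E. coli surface, counted by deep sequencing, each peptide's frequency after selection divided by its frequency in the unselected input library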;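 note: frequency after pTyr selection over input frequency; kinase dosed for 20-30% of maximal phosphorylation in three min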
Quick rule: phosphorylation enrichment of at least 0.5 means yes (1), below that means no (0).

Examples with answers:
RKLVDYNSARH [BIN1_Y150_D151N]; no (0)
FGISGYVVDSV [MAP2K3_Y214_L215V]; no (0)
IVKAYYVRARA [AIPL1_Y268]; no (0)
ERDFTYDELLN [EIF2S2_Y176_E177D_YF]; yes (1)

Now for another entry.
Lookup: Threshold query (phosphorylation enrichment >= 0.5) on TLSGTYQYIIA [FOXL2_Y81_I80T]
Found: yes (1)

###

Target: EPHB2 (UniProt P29323)
Sequence (P29323 whole entry, looked up): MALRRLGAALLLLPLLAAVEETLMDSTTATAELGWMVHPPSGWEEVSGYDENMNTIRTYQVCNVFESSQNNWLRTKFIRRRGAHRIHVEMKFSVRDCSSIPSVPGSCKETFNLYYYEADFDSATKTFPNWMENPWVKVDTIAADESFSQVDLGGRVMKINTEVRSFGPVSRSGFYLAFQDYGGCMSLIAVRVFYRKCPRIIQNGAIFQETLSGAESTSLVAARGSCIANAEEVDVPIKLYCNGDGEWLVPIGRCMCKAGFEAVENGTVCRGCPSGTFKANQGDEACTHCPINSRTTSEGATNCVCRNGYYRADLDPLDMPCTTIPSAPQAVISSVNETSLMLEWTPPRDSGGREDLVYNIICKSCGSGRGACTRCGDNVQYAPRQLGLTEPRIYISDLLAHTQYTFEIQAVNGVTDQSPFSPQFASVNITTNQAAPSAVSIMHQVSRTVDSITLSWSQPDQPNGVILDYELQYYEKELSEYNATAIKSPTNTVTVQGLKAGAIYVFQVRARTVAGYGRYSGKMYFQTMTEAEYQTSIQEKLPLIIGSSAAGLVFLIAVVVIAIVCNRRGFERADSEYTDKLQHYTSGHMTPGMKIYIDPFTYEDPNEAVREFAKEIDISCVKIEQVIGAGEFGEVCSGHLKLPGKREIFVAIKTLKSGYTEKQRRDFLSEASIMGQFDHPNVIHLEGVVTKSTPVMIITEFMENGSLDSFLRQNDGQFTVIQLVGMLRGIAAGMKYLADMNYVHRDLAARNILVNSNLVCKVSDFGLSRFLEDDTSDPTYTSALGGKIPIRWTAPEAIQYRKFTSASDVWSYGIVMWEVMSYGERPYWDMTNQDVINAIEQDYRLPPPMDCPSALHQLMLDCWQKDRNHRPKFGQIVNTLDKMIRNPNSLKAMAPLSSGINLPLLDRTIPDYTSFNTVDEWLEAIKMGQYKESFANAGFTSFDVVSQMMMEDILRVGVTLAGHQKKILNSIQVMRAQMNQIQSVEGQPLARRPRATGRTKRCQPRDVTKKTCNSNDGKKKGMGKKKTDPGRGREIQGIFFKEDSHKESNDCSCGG
Assay: phosphorylation enrichment, bacterial display (enrichment ratio); higher = better substrate or ligand; peptides without Tyr show the background
Examples of sequences with documented phosphorylation enrichment follow.
// return just the number, without any unit appended

RRIHSYRGRLW [VHL_Y112_H115R]; 0.641
CATIHYNFMCN [TP53_Y234_T230A_YF]; 0.52
AAVDEYLEFRR [FAM221A_Y17_YF]; 0.517
EVVGRYSGHNA [MLH1_Y183_V185G]; 0.4
TRHDEYLEVTK [MAP1A_Y2217]; 0.547

get_value(item= IIEDPYFGNDF [ACP1_Y132_S137F_YF] , readout=phosphorylation enrichment) returns 0.695

get_value(item= FASTGYGIAIQ [GRIN2B_Y762] , readout=phosphorylation enrichment) returns 0.456

get_value(item= PSQRHYVFFFS [PTEN_Y174_R173H_YF] , readout=phosphorylation enrichment) returns 0.763

###

Target: FGFR3 (UniProt P22607)
Sequence (P22607 whole entry, looked up): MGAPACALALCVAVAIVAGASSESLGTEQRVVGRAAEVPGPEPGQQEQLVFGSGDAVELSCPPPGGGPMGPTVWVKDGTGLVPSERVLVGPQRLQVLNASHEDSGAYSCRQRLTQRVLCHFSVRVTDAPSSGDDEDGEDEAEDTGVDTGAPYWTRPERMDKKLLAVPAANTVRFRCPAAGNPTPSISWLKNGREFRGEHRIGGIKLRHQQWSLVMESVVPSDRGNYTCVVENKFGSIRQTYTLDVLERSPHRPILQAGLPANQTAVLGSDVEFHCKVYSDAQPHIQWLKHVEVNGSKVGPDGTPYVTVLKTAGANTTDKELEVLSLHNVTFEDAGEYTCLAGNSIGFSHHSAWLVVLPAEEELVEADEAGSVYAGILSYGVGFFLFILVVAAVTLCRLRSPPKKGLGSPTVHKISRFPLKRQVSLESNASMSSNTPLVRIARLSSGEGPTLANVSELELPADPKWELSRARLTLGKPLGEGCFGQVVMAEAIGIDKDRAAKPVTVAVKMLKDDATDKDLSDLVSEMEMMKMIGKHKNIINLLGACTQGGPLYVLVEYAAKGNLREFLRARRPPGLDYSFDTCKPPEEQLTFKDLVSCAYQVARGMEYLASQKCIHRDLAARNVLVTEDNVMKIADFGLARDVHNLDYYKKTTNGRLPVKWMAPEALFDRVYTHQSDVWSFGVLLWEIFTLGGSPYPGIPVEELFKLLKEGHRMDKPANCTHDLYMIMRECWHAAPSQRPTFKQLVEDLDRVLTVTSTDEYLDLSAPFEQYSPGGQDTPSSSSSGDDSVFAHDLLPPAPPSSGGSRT
Assay: phosphorylation enrichment, bacterial display (enrichment ratio); higher = better substrate or ligand; peptides without Tyr show the background
metric: phosphorylation enrichment
// return just the number, without any unit appended

Sample answers from the record:
ILCTVYAFKTR [GRM3_Y754]; 0.715
IFETDYFRKGG [INSR_Y1189_YF]; 0.686
WISNRYPDFSS [PRPH2_Y184_L185P]; 0.685

Next sequence, please.
get_value(item= PEVSGYCHYAD [TG_Y234_C237Y] , readout=phosphorylation enrichment) returns 0.714

###

Biological target: Fes (UniProt P07332)
Sequence (P07332 whole entry, looked up): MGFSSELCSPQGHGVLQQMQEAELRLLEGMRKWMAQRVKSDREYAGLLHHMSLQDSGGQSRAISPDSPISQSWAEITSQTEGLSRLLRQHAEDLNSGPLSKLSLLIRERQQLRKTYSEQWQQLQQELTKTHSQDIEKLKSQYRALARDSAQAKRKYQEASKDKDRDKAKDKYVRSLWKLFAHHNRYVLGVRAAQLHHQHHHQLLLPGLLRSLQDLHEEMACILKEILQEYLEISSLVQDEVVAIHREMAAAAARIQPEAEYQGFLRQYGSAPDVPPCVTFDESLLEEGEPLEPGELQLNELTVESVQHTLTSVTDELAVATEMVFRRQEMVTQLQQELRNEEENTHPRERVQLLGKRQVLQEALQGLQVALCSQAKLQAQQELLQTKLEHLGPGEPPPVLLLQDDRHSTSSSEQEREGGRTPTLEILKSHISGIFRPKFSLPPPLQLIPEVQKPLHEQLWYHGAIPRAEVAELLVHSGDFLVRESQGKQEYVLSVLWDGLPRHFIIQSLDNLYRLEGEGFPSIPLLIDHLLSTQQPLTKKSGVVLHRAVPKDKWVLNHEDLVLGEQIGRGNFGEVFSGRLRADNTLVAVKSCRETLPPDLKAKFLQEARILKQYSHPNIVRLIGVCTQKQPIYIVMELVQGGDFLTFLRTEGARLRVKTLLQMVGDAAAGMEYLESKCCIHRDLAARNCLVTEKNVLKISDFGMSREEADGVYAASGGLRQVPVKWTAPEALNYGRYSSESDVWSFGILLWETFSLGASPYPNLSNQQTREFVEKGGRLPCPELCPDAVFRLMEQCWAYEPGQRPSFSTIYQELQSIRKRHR
Assay: phosphorylation enrichment, bacterial display (enrichment ratio); higher = better substrate or ligand; peptides without Tyr show the background
Examples of sequences with documented phosphorylation enrichment follow.
// return just the number, without any unit appended

SSYSGYIMMPN [LEF1_Y114]; 0.718
HEGKIYEFNQV [ZNF665_Y162_YF]; 0.975
SAGSSYSISVI [PAX5_Y179_G183V]; 0.975
TAGEPYHDIRF [BAP1_Y223]; 0.744
KDHPDYKFQAR [SOX10_Y171_P175A_YF]; 0.658
SMAKYYASEIA [ACADSB_Y373]; 0.701

get_value(item= GRRNTYFASIA [ACADM_Y352_YF] , readout=phosphorylation enrichment) returns 0.556

get_value(item= SGIYQYIIAKF [FOXL2_Y83] , readout=phosphorylation enrichment) returns 1.72

get_value(item= SFPPTYRYERG [INPPL1_Y661] , readout=phosphorylation enrichment) returns 0.592

get_value(item= PIYEGYGLPHA [ACTA1_Y171_A172G] , readout=phosphorylation enrichment) returns 2.45

get_value(item= GKMSSYAFFVQ [HMGB1_Y16] , readout=phosphorylation enrichment) returns 1.14

###

Target: FGFR1 (UniProt P11362)
Assay: phosphorylation enrichment, bacterial display (enrichment ratio); higher = better substrate or ligand; peptides without Tyr show the background
Quick rule: phosphorylation enrichment of at least 0.5 means 1, below that means 0.

Examples with answers:
PKEEPYQMQEK [SLC5A3_Y565]; 1
YTGDIYSNSNL [LZTR1_Y141]; 1
TAGEPYHDIRF [BAP1_Y223]; 1
TFEFKYPEGSS [TGM4_Y440_YF]; 1

Lookup: Threshold query (phosphorylation enrichment >= 0.5) on TVLWLYTGTRP [UGT1A1_Y337_R336L]
Found: 0

Lookup: Threshold query (phosphorylation enrichment >= 0.5) on DGYIDYAEFAK [MCFD2_Y138]
Found: 1

Lookup: Threshold query (phosphorylation enrichment >= 0.5) on PSQRPYVYYYS [PTEN_Y174_R173P]
Found: 1

Lookup: Threshold query (phosphorylation enrichment >= 0.5) on WLQKLYNNFVN [MYO5C_Y526]
Found: 0

###

Test system: AncSZ
Experiment: phosphorylation enrichment, bacterial display (enrichment ratio); higher = better substrate or ligand; peptides without Tyr show the background
Examples of sequences with documented phosphorylation enrichment follow.

PIYEGYGLPHA [ACTA1_Y171_A172G]; 1.32
FLENFYDLKKD [MMP3_Y42_YF]; 1.24
RLSELYLRRNP [CFAP410_Y68_R73P]; 0.813
KGEDFYCVTFH [FHL1_Y149_C153Y_YF]; 1.48

get_value(item= TLSGTYQYIIA [FOXL2_Y81_I80T] , readout=phosphorylation enrichment) returns 1.05

get_value(item= NFRRGYHLQVL [CD200R1L_Y138_H135R] , readout=phosphorylation enrichment) returns 0.621

get_value(item= KRIKSYNQEND [RPGRIP1L_Y448_L447S] , readout=phosphorylation enrichment) returns 0.436

get_value(item= LTMAPYSSVSV [FAM81A_Y24_L29V] , readout=phosphorylation enrichment) returns 1.05

get_value(item= VTAALYGRLYE [BTD_Y536] , readout=phosphorylation enrichment) returns 0.883

get_value(item= CEHRGSLFLAI [TEK_Y897_Y897S_YF] , readout=phosphorylation enrichment) returns 1.03

get_value(item= MDDDQYALLTT [EFCAB6_Y675] , readout=phosphorylation enrichment) returns 1.39

get_value(item= LSSLAYSGKDA [FXN_Y205] , readout=phosphorylation enrichment) returns 0.859

get_value(item= TVEDHYFEGGI [TKT_Y563_YF] , readout=phosphorylation enrichment) returns 1.1

get_value(item= VKGGAYNPVTV [MCCC2_Y145_Y146N] , readout=phosphorylation enrichment) returns 0.552

###

Biological target: FGFR3 (UniProt P22607)
Assay: phosphorylation enrichment, bacterial display (enrichment ratio); higher = better substrate or ligand; peptides without Tyr show the background
Quick rule: phosphorylation enrichment of at least 0.5 means class 1, below that means class 0.

Examples with answers:
IIGNGYFFHVF [MYBPC3_Y1135_R1138H_YF]; class 1
VKGGAYNPVTV [MCCC2_Y145_Y146N]; class 0
KDKLPYPYDDP [GPX2_Y125]; class 1
SMAKYYASEIA [ACADSB_Y373]; class 0
KQFWRYFPGNL [SLC25A4_Y112_A114P]; class 1

Lookup: Threshold query (phosphorylation enrichment >= 0.5) on DKITQYVEEVK [STX2_Y49]
Found: class 1

Lookup: Threshold query (phosphorylation enrichment >= 0.5) on CSDPSYVKQME [CDC5L_Y464_Y459C]
Found: class 1

###

Examples of sequences with documented phosphorylation enrichment follow.
Tested on: c-Src
Test: phosphorylation enrichment, bacterial display (enrichment ratio); higher = better substrate or ligand; peptides without Tyr show the background
// return just the number, without any unit appended

Sample answers from the record:
LLILEYAKYGS [RET_Y806_V804L]; 0.764
PELINYHQHFS [BTK_Y361_N365Y_YF]; 0.38
GASRRYGSGVS [NEU1_Y242_W240R]; 0.41
AASHRYDLGGL [QPRT_Y162]; 0.391
IKNPQYFSDAC [NTRK1_Y496_E492K]; 0.473

get_value(item= QFKGKYLAKHN [CASK_Y712_D710G_YF] , readout=phosphorylation enrichment) returns 0.404

###

Examples of sequences with documented phosphorylation enrichment follow.
Target: FGFR1 (UniProt P11362)
Assay: phosphorylation enrichment, bacterial display (enrichment ratio); higher = better substrate or ligand; peptides without Tyr show the background
// return just the number, without any unit appended

Sample answers from the record:
ENRKFYKDLKE [PURA_Y156_M157K_YF]; 0.401
CEQELYSQLVF [WAS_Y102_W97C_YF]; 1.66
GTVRDYPDFSP [ANXA3_Y15]; 0.508
NQSVRYDSSLK [ABCC8_Y1353_L1349Q]; 0.341
WIPIQCPIISE [NOG_Y222_Y222C]; 0.54
IHTDAYVRAMT [RPE65_Y89_R85H]; 0.389
HTLMKYTDGDQ [PUS7L_Y94_I92M]; 0.813
YQRITYHNWRH [PDE6B_Y556_R552Q]; 0.626

Measured on FGFR1 (UniProt P11362), ETGNLYIAKVE [CNTN4_Y180] has a documented phosphorylation enrichment of 0.405

Measured on FGFR1 (UniProt P11362), SGIYQYNIAKF [FOXL2_Y83_I84N] has a documented phosphorylation enrichment of 0.659

Measured on FGFR1 (UniProt P11362), VITTLYIGFLG [KCNQ1_Y267_L262V] has a documented phosphorylation enrichment of 0.692

Measured on FGFR1 (UniProt P11362), HEGKIYEFNQV [ZNF665_Y162_YF] has a documented phosphorylation enrichment of 0.665

Measured on FGFR1 (UniProt P11362), TPGPNYRPGYN [USH2A_Y463] has a documented phosphorylation enrichment of 0.232

Measured on FGFR1 (UniProt P11362), TVEDHYFEGGI [TKT_Y563_YF] has a documented phosphorylation enrichment of 0.762

Measured on FGFR1 (UniProt P11362), GFEEAYSVSKK [PAFAH1B1_Y28_F31S_YF] has a documented phosphorylation enrichment of 0.374

Measured on FGFR1 (UniProt P11362), CTTIHYFFMCN [TP53_Y234_N235Y_YF] has a documented phosphorylation enrichment of 0.413
